Test Method Notes: Solubility of Compound 2 in solvent systems (slurries, HPLC)
Format: physicochemical
Assay Setup: organic solvent or mixture, thermodynamic from solid; Methanol; after one day at 20° C.
Description: Slurries were set up in the solvents reported in Table 1 by weighing approximately 200 mg of Compound 2, suspending the solid in 0.5 mL of solvent and checking that excess solid remained un-dissolved. The prepared samples were also used to calculate Compound 2 solubility in the solvent systems used. The slurries prepared for the long term slurry experiments were sampled after one day at 20° C. to measure the solubility of Compound 2 in the solvent systems used. […]
Measured Property: solubility at 1 day (mg/mL)
The reply should be a number in mg/mL, with the unit left off.

### Prompt Look at this compound and give its reported solubility at 1 day. `NC(=O)[C@H]1CCN(c2ncnc(N)c2F)C[C@@H]1N1CCC[C@@H](Nc2cc(Cl)cc(C(F)(F)F)c2)C1=O`
### Response 103

---

Test Method Notes: Single-dose PK in monkey
Assay type: in vivo
Assay Setup: male, cynomolgus monkey, plasma, 5 mg/kg, PO, dose 5, 0.1% CMC/0.2% Tween, read-out: % F (oral bioavailability)
Measured Property: bioavailability

### Prompt Look at this molecule and give its reported bioavailability. `NC(=O)[C@H]1CCN(c2ncnc(N)c2F)C[C@@H]1N1CCC[C@@H](Nc2cc(Cl)cc(C(F)(F)F)c2)C1=O`
### Response 33%

---

Test Method Notes: Single-dose PK in rat
Assay type: in vivo, male Sprague Dawley rats
Assay Setup: male, Sprague Dawley, plasma, 1 mg/kg, IV, dose 1, SPEW, free base measured
Measured Property: C0 (µg/mL)
The reply should be a number in µg/mL, with the unit left off.

### Prompt Look at this compound and give its reported C0. NC(=O)[C@H]1CCN(c2ncnc(N)c2F)C[C@@H]1N1CCC[C@@H](Nc2cc(Cl)cc(C(F)(F)F)c2)C1=O [Compound 2]
### Response 4.37

---

Test Method Notes: Solubility of Compound 2 in solvent systems (slurries, HPLC)
Format: physicochemical
Assay Setup: organic solvent or mixture, thermodynamic from solid; 2-propanol/water 90/10; after one day at 20° C.
Procedure: Slurries were set up in the solvents reported in Table 1 by weighing approximately 200 mg of Compound 2, suspending the solid in 0.5 mL of solvent and checking that excess solid remained un-dissolved. The prepared samples were also used to calculate Compound 2 solubility in the solvent systems used. The slurries prepared for the long term slurry experiments were sampled after one day at 20° C. to measure the solubility of Compound 2 in the solvent systems used. […]
Measured Property: solubility at 1 day (mg/mL)
The reply should be a number in mg/mL, with the unit left off.

### Prompt Look at this compound and give its reported solubility at 1 day. `NC(=O)[C@H]1CCN(c2ncnc(N)c2F)C[C@@H]1N1CCC[C@@H](Nc2cc(Cl)cc(C(F)(F)F)c2)C1=O`
### Response 41

---

Test Method Notes: Phase 1a single-dose study in humans, Stage 1: pharmacokinetics
Type: in vivo, human
Assay Setup: both sexes, human, plasma, oral; Cohort 2 (100 mg); mean (SD); read-out: t1/2 (converted)
Measured Property: half-life (h)
The reply should be a number in h, with the unit left off.

### Prompt Look at this compound and give its reported half-life. `NC(=O)[C@H]1CCN(c2ncnc(N)c2F)C[C@@H]1N1CCC[C@@H](Nc2cc(Cl)cc(C(F)(F)F)c2)C1=O`
### Response 7.43
